# assay_procedure: Pharmacokinetic study in SD rats after oral administration of TWMM (UPLC-QQQ-MS of plasma)
# Type: in vivo, Sprague-Dawley (SD) rats
# condition_details: male, Sprague-Dawley, rat, oral TWMM 9.6 g/kg, n = 6
compounds and their reported half-life
The answer is to be given in h; state only the numeric part.

COc1ccc(-c2coc3cc(O)ccc3c2=O)cc1
11.7
O=C(/C=C/c1ccc(O)c(O)c1)O[C@@H]1C[C@](O)(C(=O)O)C[C@@H](O)[C@H]1O
2.71
C[C@@H]1O[C@@H](O[C@@H]2[C@@H](O)[C@H](OCCc3ccc(O)c(O)c3)O[C@H](CO)[C@H]2OC(=O)/C=C/c2ccc(O)c(O)c2)[C@H](O)[C@H](O)[C@H]1O [Verbascoside]
2.08

query: Which measured half-life value corresponds to O=c1cc(-c2ccc(O)c(O)c2)oc2cc(O)cc(O)c12 ?
result: 11.1

query: Which measured half-life value corresponds to C/C=C1/[C@H](O[C@@H]2O[C@H](CO)[C@@H](O)[C@H](O)[C@H]2O)OC=C(C(=O)OC)[C@H]1CC(=O)OCCc1ccc(O)c(O)c1 ?
result: 3.36

###

compounds and their reported Tmax
# assay_procedure: Pharmacokinetic study in SD rats after oral administration of TWMM (UPLC-QQQ-MS of plasma)
# Assay type: in vivo, Sprague-Dawley (SD) rats
# condition_details: male, Sprague-Dawley, rat, po, 9.6 g/kg, oral TWMM 9.6 g/kg, n = 6, read-out: Tmax
The answer is to be given in h; state only the numeric part.

C/C=C1/[C@H](O[C@@H]2O[C@H](CO)[C@@H](O)[C@H](O)[C@H]2O)OC=C(C(=O)OC)[C@H]1CC(=O)OCCc1ccc(O)c(O)c1 [Oleuropein]
1.37

Below: the item to evaluate.
query: Which measured Tmax value corresponds to O=c1cc(-c2ccc(O)c(O)c2)oc2cc(O)cc(O)c12 [Luteolin] ?
result: 1.71

###

# assay_procedure: Pharmacokinetic study in SD rats after oral administration of TWMM (UPLC-QQQ-MS of plasma)
# Format: in vivo, Sprague-Dawley (SD) rats
# condition_details: male, Sprague-Dawley, rat, oral TWMM 9.6 g/kg, n = 6, read-out: MRT (0–36)
compounds and their reported MRT last
Quick note: unit goes after the number.

These solved cases illustrate the format of a correct answer.
C/C=C1/[C@H](O[C@@H]2O[C@H](CO)[C@@H](O)[C@H](O)[C@H]2O)OC=C(C(=O)OC)[C@H]1CC(=O)OCCc1ccc(O)c(O)c1
1.53 h
COc1ccc(-c2coc3cc(O)ccc3c2=O)cc1
10.7 h
C[C@@H]1O[C@@H](O[C@@H]2[C@@H](O)[C@H](OCCc3ccc(O)c(O)c3)O[C@H](CO)[C@H]2OC(=O)/C=C/c2ccc(O)c(O)c2)[C@H](O)[C@H](O)[C@H]1O [Verbascoside]
8.9 h
O=c1cc(-c2ccc(O)c(O)c2)oc2cc(O)cc(O)c12
11.4 h

Below: the item to evaluate.
query: Which measured MRT last value corresponds to O=C(/C=C/c1ccc(O)c(O)c1)O[C@@H]1C[C@](O)(C(=O)O)C[C@@H](O)[C@H]1O ?
result: 4.97 h

###

# assay_procedure: Pharmacokinetic study in SD rats after oral administration of TWMM (UPLC-QQQ-MS of plasma)
# Type: in vivo, Sprague-Dawley (SD) rats
# condition_details: male, Sprague-Dawley, rat, oral TWMM 9.6 g/kg, read-out: areas under the concentration-time curve (AUC0–∞)
molecules and their reported AUC(0-inf)
The answer is to be given in ng·h/mL; state only the numeric part.

These solved cases illustrate the format of a correct answer.
O=c1cc(-c2ccc(O)c(O)c2)oc2cc(O)cc(O)c12
44
O=C(/C=C/c1ccc(O)c(O)c1)O[C@@H]1C[C@](O)(C(=O)O)C[C@@H](O)[C@H]1O
34
C/C=C1/[C@H](O[C@@H]2O[C@H](CO)[C@@H](O)[C@H](O)[C@H]2O)OC=C(C(=O)OC)[C@H]1CC(=O)OCCc1ccc(O)c(O)c1
1.03
COc1ccc(-c2coc3cc(O)ccc3c2=O)cc1
46

Below: the item to evaluate.
query: Which measured AUC(0-inf) value corresponds to C[C@@H]1O[C@@H](O[C@@H]2[C@@H](O)[C@H](OCCc3ccc(O)c(O)c3)O[C@H](CO)[C@H]2OC(=O)/C=C/c2ccc(O)c(O)c2)[C@H](O)[C@H](O)[C@H]1O [Verbascoside] ?
result: 175

###

# assay_procedure: Pharmacokinetic study in SD rats after oral administration of TWMM (UPLC-QQQ-MS of plasma)
# Assay type: in vivo, Sprague-Dawley (SD) rats
# condition_details: male, Sprague-Dawley, rat, oral TWMM 9.6 g/kg, n = 6, read-out: MRT (0–∞)
observable: log10 of MRT inf (log10 of the value in h)
The figures below represent log10 of MRT inf, where MRT inf is stated in h.

These solved cases illustrate the format of a correct answer.
C[C@@H]1O[C@@H](O[C@@H]2[C@@H](O)[C@H](OCCc3ccc(O)c(O)c3)O[C@H](CO)[C@H]2OC(=O)/C=C/c2ccc(O)c(O)c2)[C@H](O)[C@H](O)[C@H]1O [Verbascoside]
0.95
C/C=C1/[C@H](O[C@@H]2O[C@H](CO)[C@@H](O)[C@H](O)[C@H]2O)OC=C(C(=O)OC)[C@H]1CC(=O)OCCc1ccc(O)c(O)c1
0.19
O=c1cc(-c2ccc(O)c(O)c2)oc2cc(O)cc(O)c12
1.26
O=C(/C=C/c1ccc(O)c(O)c1)O[C@@H]1C[C@](O)(C(=O)O)C[C@@H](O)[C@H]1O
0.70

Below: the item to evaluate.
query: Which measured log10 of MRT inf value corresponds to COc1ccc(-c2coc3cc(O)ccc3c2=O)cc1 ?
result: 1.20

###

# assay_procedure: Pharmacokinetic study in SD rats after oral administration of TWMM (UPLC-QQQ-MS of plasma)
# Type: in vivo, Sprague-Dawley (SD) rats
# condition_details: oral TWMM 9.6 g/kg, n = 6
compounds and their reported t1/2
The answer is to be given in h; state only the numeric part.

query: Which measured t1/2 value corresponds to CC=C1[C@H](O[C@@H]2O[C@H](CO)[C@@H](O)[C@H](O)[C@H]2O)OC=C(C(=O)OC)[C@H]1CC(=O)OC[C@H]1O[C@@H](OCCc2ccc(O)cc2)[C@H](O)[C@@H](O)[C@@H]1O (stereo in doubt) [Specnuezhenide] ?
result: 20.27

query: Which measured t1/2 value corresponds to COc1ccc(-c2cc(=O)c3c(O)cc(O[C@@H]4O[C@H](CO[C@@H]5O[C@@H](C)[C@H](O)[C@@H](O)[C@H]5O)[C@@H](O)[C@H](O)[C@H]4O)cc3o2)cc1 ?
result: 2.81

###

# assay_procedure: Pharmacokinetic study in SD rats after oral administration of TWMM (UPLC-QQQ-MS of plasma)
# Format: in vivo, Sprague-Dawley (SD) rats
# condition_details: oral TWMM 9.6 g/kg, n = 6
compounds and their reported Tmax
The answer is to be given in min; state only the numeric part.

query: Which measured Tmax value corresponds to COc1ccc(-c2coc3cc(O)ccc3c2=O)cc1 ?
result: 27.6

###

# assay_procedure: Pharmacokinetic study in SD rats after oral administration of TWMM (UPLC-QQQ-MS of plasma)
# Type: in vivo, Sprague-Dawley (SD) rats
# condition_details: male, Sprague-Dawley, rat, oral TWMM 9.6 g/kg, n = 6, read-out: AUC (0–36)
Tick 1 if AUC(0-t) is 40 ng·h/mL or greater. Tick 0 if AUC(0-t) is less than 40 ng·h/mL.

C/C=C1/[C@H](O[C@@H]2O[C@H](CO)[C@@H](O)[C@H](O)[C@H]2O)OC=C(C(=O)OC)[C@H]1CC(=O)OCCc1ccc(O)c(O)c1
0

query: Quick check: does C[C@@H]1O[C@@H](O[C@@H]2[C@@H](O)[C@H](OCCc3ccc(O)c(O)c3)O[C@H](CO)[C@H]2OC(=O)/C=C/c2ccc(O)c(O)c2)[C@H](O)[C@H](O)[C@H]1O [Verbascoside] have AUC(0-t) greater than or equal to 40 ng·h/mL?
result: 1

query: Quick check: does O=c1cc(-c2ccc(O)c(O)c2)oc2cc(O)cc(O)c12 have AUC(0-t) greater than or equal to 40 ng·h/mL?
result: 0

query: Quick check: does O=C(/C=C/c1ccc(O)c(O)c1)O[C@@H]1C[C@](O)(C(=O)O)C[C@@H](O)[C@H]1O have AUC(0-t) greater than or equal to 40 ng·h/mL?
result: 0

###

# assay_procedure: Pharmacokinetic study in SD rats after oral administration of TWMM (UPLC-QQQ-MS of plasma)
# Assay type: in vivo, Sprague-Dawley (SD) rats
# condition_details: male, Sprague-Dawley, rat, oral TWMM 9.6 g/kg, n = 6, read-out: Cmax
observable: Cmax
Quick note: unit goes after the number.

query: Which measured Cmax value corresponds to C[C@@H]1O[C@@H](O[C@@H]2[C@@H](O)[C@H](OCCc3ccc(O)c(O)c3)O[C@H](CO)[C@H]2OC(=O)/C=C/c2ccc(O)c(O)c2)[C@H](O)[C@H](O)[C@H]1O [Verbascoside] ?
result: 45.5 ng/mL

query: Which measured Cmax value corresponds to O=c1cc(-c2ccc(O)c(O)c2)oc2cc(O)cc(O)c12 ?
result: 3.27 ng/mL

query: Which measured Cmax value corresponds to COc1ccc(-c2coc3cc(O)ccc3c2=O)cc1 ?
result: 6.17 ng/mL

query: Which measured Cmax value corresponds to C/C=C1/[C@H](O[C@@H]2O[C@H](CO)[C@@H](O)[C@H](O)[C@H]2O)OC=C(C(=O)OC)[C@H]1CC(=O)OCCc1ccc(O)c(O)c1 ?
result: 0.9 ng/mL

query: Which measured Cmax value corresponds to O=C(/C=C/c1ccc(O)c(O)c1)O[C@@H]1C[C@](O)(C(=O)O)C[C@@H](O)[C@H]1O ?
result: 16.1 ng/mL
